System: Dipeptidyl peptidase 8 (Homo sapiens) | Read-out: IC50 | Origin: multiple publications
Sequence (Q6V1X1 whole entry): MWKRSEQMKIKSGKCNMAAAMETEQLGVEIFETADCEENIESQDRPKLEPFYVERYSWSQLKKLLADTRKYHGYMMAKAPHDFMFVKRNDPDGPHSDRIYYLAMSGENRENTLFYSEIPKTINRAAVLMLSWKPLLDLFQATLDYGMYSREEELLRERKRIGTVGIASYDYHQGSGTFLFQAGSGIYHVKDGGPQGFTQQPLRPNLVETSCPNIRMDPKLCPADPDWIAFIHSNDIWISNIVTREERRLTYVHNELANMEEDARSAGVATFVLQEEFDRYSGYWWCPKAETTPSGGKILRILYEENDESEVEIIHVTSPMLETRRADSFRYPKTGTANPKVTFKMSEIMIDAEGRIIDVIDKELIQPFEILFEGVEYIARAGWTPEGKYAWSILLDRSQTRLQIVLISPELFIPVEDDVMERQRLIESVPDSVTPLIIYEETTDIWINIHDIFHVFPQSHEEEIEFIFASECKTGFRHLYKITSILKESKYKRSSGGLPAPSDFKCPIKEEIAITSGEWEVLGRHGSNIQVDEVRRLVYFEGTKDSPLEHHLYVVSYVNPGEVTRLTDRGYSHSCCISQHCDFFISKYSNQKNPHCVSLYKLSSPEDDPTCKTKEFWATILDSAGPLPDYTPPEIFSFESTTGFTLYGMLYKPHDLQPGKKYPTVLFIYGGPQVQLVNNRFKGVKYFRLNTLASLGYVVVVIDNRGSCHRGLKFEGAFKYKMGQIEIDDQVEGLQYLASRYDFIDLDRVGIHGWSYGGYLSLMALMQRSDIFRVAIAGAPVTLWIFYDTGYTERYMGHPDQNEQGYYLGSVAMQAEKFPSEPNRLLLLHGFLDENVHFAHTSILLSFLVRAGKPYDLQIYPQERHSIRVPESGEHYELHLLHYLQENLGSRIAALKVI

Example cases with answers are listed next.
>>> result("CN(C)C(=O)Cn1c(=O)n(C)c(=O)c2c1cc(N1CCC[C@@](C)(N)C1)n2Cc1cc(F)ccc1Cl.Cl")
"> 10 µM"
>>> result("N[C@H]1CN(c2ccc3nc(C(F)(F)F)cn3n2)CC[C@@H]1c1cc(F)c(F)cc1F")
"49 µM"
>>> result("C[C@@H](c1ccc(-c2cn(C)c(=O)c(Cl)c2F)cc1)[C@H](N)C(=O)N1CC[C@H](F)C1")
"> 100 µM"

Enter reported IC50 observed with Dipeptidyl peptidase 8 (Homo sapiens) for N[C@@H](CC(=O)N1CCn2ncnc2C1)Cc1cc(F)c(F)cc1F > 100 µM

Any idea what IC50 came out for Cl.N[C@@H](CC(=O)N1CCn2c(nnc2C(F)(F)F)C1Cc1ccccn1)Cc1cc(F)c(F)cc1F (stereo in doubt; 49b) on Dipeptidyl peptidase 8 (Homo sapiens)? 5 µM

Look up IC50 with Dipeptidyl peptidase 8 (Homo sapiens) for this compound: COc1ccc2c(c1)nc1n2C[C@H](N)[C@@H](c2cc(F)c(F)cc2F)C1 > 100 µM
